Target: UniProt:P30405
Sequence (P30405 30-207): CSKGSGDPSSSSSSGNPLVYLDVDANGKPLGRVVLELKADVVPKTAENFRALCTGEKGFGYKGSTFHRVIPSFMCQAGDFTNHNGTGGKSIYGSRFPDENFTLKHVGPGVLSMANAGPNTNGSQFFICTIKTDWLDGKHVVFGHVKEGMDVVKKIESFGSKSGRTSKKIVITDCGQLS
Experiment: Inhibitor binding to cyclophilin proteins by SPR, CypF
Settings: 1:1 binding model
Starred links: 1 amine or outer side, 2 acyl side, 3 side chain; linkers in the order of their positions; H or OH if unused. Non-standard residues stand in square brackets, D forms with d. Residues, ends and D or L forms follow the SMILES beside them. X29 = CC(=O)N1CCN(C[C@@H](C)[C@@H](C(=O)[*:2])N(C)[*:1])CC1; MeBmt = C/C=C/C[C@@H](C)[C@@H](O)[C@H](NC)C(=O)O; NMeL = CN[C@@H](CC(C)C)C(=O)O; NMeV = CN[C@H](C(=O)O)C(C)C; dNMeA = CN[C@H](C)C(=O)O; Abu = CC[C@H](N)C(=O)O
Quantity Name: CypF Kd (nM)
Give bare numbers, in nM.

Provide measured CypF Kd value, entry: C/C=C/C[C@@H](C)[C@@H](O)[C@H]1C(=O)N[C@@H](CC)C(=O)N(C)[C@H](C)C(=O)N(C)[C@@H]([C@H](C)CN2CCN(C(C)=O)CC2)C(=O)N[C@@H](C(C)C)C(=O)N(C)[C@@H](CC(C)C)C(=O)N[C@@H](C)C(=O)N[C@H](C)C(=O)N(C)[C@@H](CC(C)C)C(=O)N(C)[C@@H](CC(C)C)C(=O)N(C)[C@@H](C(C)C)C(=O)N1C [Compound 2.5.23] (cyclo(A[dA][NMeL][NMeL][NMeV][MeBmt][Abu][dNMeA][X29]V[NMeL]))
0.8
